- System: Trichoderma virens ATCC 9645
- Test: growth yield (OD600) with compound + IPBC relative to untreated control; higher = less growth inhibition
- Condition details: compound concentration: 100 uM; IPBC concentration: 200 ng/ml; 40 h
Counter-ions that a name gives are not always drawn. Out of some 1,300 compounds screened, about 130 (10%) showed an effect of 50% or more. The list comes from a sample in which strong results are over-represented; it also holds close analogues and randomly drawn compounds.
Class label 1: growth yield at least 70%. Class label 0: growth yield below 70%.

- Compound: "COC[C@@H](NC(C)=O)C(=O)NCc1ccccc1 [Lacosamide] + CCCCNC(=O)OCC#CI [3-iodo-2-propynyl butylcarbamate (IPBC)]"
  Label class: "label 1"
- Compound: "COc1ccc(C(CN(C)C)C2(O)CCCCC2)cc1 (stereo not given) [Venlafaxine] + CCCCNC(=O)OCC#CI [3-iodo-2-propynyl butylcarbamate (IPBC)]"
  Label class: "label 1"
- Compound: "CC1CCc2cc(F)cc3c(=O)c(C(=O)O)cn1c23 (stereo not given) [Flumequine] + CCCCNC(=O)OCC#CI [3-iodo-2-propynyl butylcarbamate (IPBC)]"
  Label class: "label 1"
- Compound: "CN(C)CC/C=C1/c2ccccc2Sc2ccc(Cl)cc21 [Chlorprothixene hydrochloride] + CCCCNC(=O)OCC#CI [3-iodo-2-propynyl butylcarbamate (IPBC)]"
  Label class: "label 0"
- Compound: "Clc1ccc(Cn2c(CN3CCCC3)nc3ccccc32)cc1 [Clemizole hydrochloride] + CCCCNC(=O)OCC#CI [3-iodo-2-propynyl butylcarbamate (IPBC)]"
  Label class: "label 1"
- Compound: "CSc1ccc2c(c1)C(N1CCN(C)CC1)Cc1ccccc1S2 (stereo not given) [Methiothepin maleate] + CCCCNC(=O)OCC#CI [3-iodo-2-propynyl butylcarbamate (IPBC)]"
  Label class: "label 0"
- Compound: "COc1cccc2c1C(=O)c1c(O)c3c(c(O)c1C2=O)C[C@@](O)(C(=O)CO)C[C@@H]3O[C@H]1C[C@H](N)[C@H](O)[C@H](C)O1 [Doxorubicin hydrochloride] + CCCCNC(=O)OCC#CI [3-iodo-2-propynyl butylcarbamate (IPBC)]"
  Label class: "label 0"
- Compound: "CCC1(c2ccc(N)cc2)CCC(=O)NC1=O (stereo not given) [Glutethimide, para-amino] + CCCCNC(=O)OCC#CI [3-iodo-2-propynyl butylcarbamate (IPBC)]"
  Label class: "label 1"
- Compound: "O=C(c1ccc(F)cc1)C1CCN(CCn2c(=O)[nH]c3ccccc3c2=O)CC1 [Ketanserin tartrate hydrate] + CCCCNC(=O)OCC#CI [3-iodo-2-propynyl butylcarbamate (IPBC)]"
  Label class: "label 1"
- Compound: "Clc1ccc(C(Cn2ccnc2)OCc2c(Cl)cccc2Cl)c(Cl)c1 (stereo not given) [Isoconazole] + CCCCNC(=O)OCC#CI [3-iodo-2-propynyl butylcarbamate (IPBC)]"
  Label class: "label 0"
- Compound: "CN1CCN2c3ccccc3Cc3ccccc3C2C1 (stereo not given) [Mianserine hydrochloride] + CCCCNC(=O)OCC#CI [3-iodo-2-propynyl butylcarbamate (IPBC)]"
  Label class: "label 1"
- Compound: "CCOc1ccc(Cc2nccc3cc(OCC)c(OCC)cc23)cc1OCC [Ethaverine hydrochloride] + CCCCNC(=O)OCC#CI [3-iodo-2-propynyl butylcarbamate (IPBC)]"
  Label class: "label 0"
- Compound: "CC(=O)[C@@]1(O)CC[C@H]2[C@@H]3C[C@H](C)C4=CC(=O)C=C[C@]4(C)[C@@]3(F)[C@@H](O)C[C@@]21C [Fluorometholone] + CCCCNC(=O)OCC#CI [3-iodo-2-propynyl butylcarbamate (IPBC)]"
  Label class: "label 1"
- Compound: "CN(C)CCC=C1c2ccccc2C=Cc2ccccc21 [Cyclobenzaprine hydrochloride] + CCCCNC(=O)OCC#CI [3-iodo-2-propynyl butylcarbamate (IPBC)]"
  Label class: "label 0"
- Compound: "O=C(O)/C=C/c1ccc(Cn2ccnc2)cc1 [Ozagrel hydrochloride] + CCCCNC(=O)OCC#CI [3-iodo-2-propynyl butylcarbamate (IPBC)]"
  Label class: "label 1"
- Compound: "OCCN1CCN(CC/C=C2/c3ccccc3Sc3ccc(Cl)cc32)CC1 [Zuclopenthixol dihydrochloride] + CCCCNC(=O)OCC#CI [3-iodo-2-propynyl butylcarbamate (IPBC)]"
  Label class: "label 0"
- Compound: "COc1cccc(N(C)C(=S)Oc2ccc3c(c2)CCCC3)n1 [Liranaftate] + CCCCNC(=O)OCC#CI [3-iodo-2-propynyl butylcarbamate (IPBC)]"
  Label class: "label 0"
- Compound: "C#C[C@]1(O)CC[C@H]2[C@@H]3CCC4=CC(=O)CC[C@]4(C)[C@H]3CC[C@@]21C [Ethisterone] + CCCCNC(=O)OCC#CI [3-iodo-2-propynyl butylcarbamate (IPBC)]"
  Label class: "label 1"
- Compound: "CN(C)CCOC(c1ccc(Cl)cc1)c1ccccn1 (stereo not given) [Carbinoxamine maleate salt] + CCCCNC(=O)OCC#CI [3-iodo-2-propynyl butylcarbamate (IPBC)]"
  Label class: "label 1"
- Compound: "COc1cccc2c1C(=O)c1c(O)c3c(c(O)c1C2=O)C[C@@](O)(C(C)=O)C[C@@H]3O[C@H]1C[C@H](N)[C@H](O)[C@H](C)O1 [Daunorubicin hydrochloride] + CCCCNC(=O)OCC#CI [3-iodo-2-propynyl butylcarbamate (IPBC)]"
  Label class: "label 0"

Cited source for all entries: the supplement of paper PMC8007513
